- Tested on: LC3-II production in Hep3B cells
- EXPERIMENTAL_DETAILS: Autophagy activation: degree of LC3-II production in Hep3B cells (Western blot band density)
- Type: cell-based, human
- ASSAY_CONDITIONS: amount of LC3-II increased by compound treatment relative to that of the Comparative Example (=1), 12 hours
- Experimental: The degree of autophagy activation of each compound was evaluated by measuring the degree of LC3-II production in Hep3B cells. Specifically, Hep3B human hepatocytes were cultured in DMEM medium at 37° C. under 5% CO2 atmosphere. […] The amount of protein was measured with bovine serum albumin as a protein standard using SMART™ BCA Protein Assay kit from iNtRON Biotechnology. […] Then, bands were measured using ECL (Enhanced Chemiluminescence, Thermo Scientific, Cat No. 34080). […]
ENDPOINT: Autophagy-inducing capacity
Give bare numbers.

Look over these answered cases.
CC(C)NC(=O)c1ccc(-c2cnc3ccccc3c2)s1 : 1.99
O=C(Nc1cccnc1)c1ccc(-c2cccnc2)o1 [Example 58, N,5-di(pyridin-3-yl)furan-2-carboxamide] : 1.10
COc1ccc(-c2ccc(C(=O)NC(C)C)s2)cc1OC [Comparative Example, reference compound] : 1.00

Hello, I would appreciate it if you could give Autophagy-inducing capacity for each entry below.
1. CC(C)NC(=O)c1ccc(-c2ccc(F)c(F)c2)s1
2. CC(C)NC(=O)c1ccc(-c2cncc3ccccc23)s1
3. CC(C)NC(=O)c1ccc(-c2ccc(C(=O)NC(C)C)o2)cc1
4. COc1cc(-c2ccc(C(=O)NC(C)C)s2)ccc1O
5. CCOC(=O)c1ccc(-c2cnc3ccccc3c2)o1
6. O=C(Nc1ccccc1)c1ccc(-c2cccnc2)s1

Ans.
1: 1.01; 2: 1.50; 3: 1.17; 4: 1.48; 5: 1.02; 6: 1.51

###

Please provide measured Autophagy-inducing capacity for the entries that follow.
- System: LC3-II production in Hep3B cells
- EXPERIMENTAL_DETAILS: Autophagy activation: degree of LC3-II production in Hep3B cells (Western blot band density)
- Format: cell-based, human
- ASSAY_CONDITIONS: amount of LC3-II increased by compound treatment relative to that of the Comparative Example (=1), 12 hours
Give bare numbers.

CCNC(=O)c1ccc(-c2ccc(C(=O)NC(C)C)o2)cc1 [Example 93] : 1.19
COc1ccc(-c2ccc(C(=O)NC(C)C)s2)c(OC)n1 [Example 12] : 1.19
CC(C)NC(=O)c1ccc(-c2ccc3[nH]ccc3c2)s1 [Example 11] : 2.13
COc1ccc(-c2ccc(C(=O)NC(C)C)s2)cc1O [Example 2] : 1.38
COc1cc(-c2ccc(C(=O)NC(C)C)s2)cnc1N [Example 14] : 1.13
CC(C)NC(=O)c1ccc(-c2cncc3ccccc23)o1 [Example 65] : 1.66
Cc1ccc(-c2ccc(C(=O)NC(C)C)s2)c(C)c1 [Example 31] : 1.49
Cc1cc(C)cc(-c2ccc(C(=O)Nc3ccccc3)s2)c1 [Example 48] : 1.46

# return Autophagy-inducing capacity for each item in the list
1. Cc1cccc(-c2ccc(C(=O)NC(C)C)s2)c1 [Example 30]
2. Cc1cc(C)cc(-c2ccc(C(=O)NC(C)C)o2)c1 [Example 85]
3. Cc1cc(C)cc(-c2ccc(C(=O)NC(C)C)s2)c1 [Example 28]
4. CCNC(=O)c1cccc(-c2ccc(C(=O)NC(C)C)o2)c1 [Example 92]
5. O=C(Nc1cccnc1)c1ccc(-c2cccc(O)c2)o1 [Example 91]

Ans.
1. 1.02
2. 1.09
3. 1.60
4. 1.41
5. 1.33

Each compound below has a recorded value; state its Autophagy-inducing capacity.
1. CC(C)OC(=O)c1ccc(-c2cccnc2)s1 [Example 72]
2. CC(C)NC(=O)c1ccc(-c2ccc(O)cc2)s1 [Example 5]
3. CC(C)NC(=O)c1ccc(-c2cccc(O)c2)s1 [Example 4]
4. CC(C)NC(=O)c1ccc(-c2cccc(N)c2)s1 [Example 18]
5. CC(C)NC(=O)c1ccc(-c2cccnc2)s1 [Example 7]
6. CCOC(=O)c1ccc(-c2ccc(C#N)cc2)o1 [Example 89]

Ans.
1. 1.08
2. 1.80
3. 1.16
4. 1.13
5. 1.24
6. 1.64
